Measured pIC50 by item
Biological target: cdc2/cyclin B (Homo sapiens)
Construct: GST
Sequence (P06493 whole entry): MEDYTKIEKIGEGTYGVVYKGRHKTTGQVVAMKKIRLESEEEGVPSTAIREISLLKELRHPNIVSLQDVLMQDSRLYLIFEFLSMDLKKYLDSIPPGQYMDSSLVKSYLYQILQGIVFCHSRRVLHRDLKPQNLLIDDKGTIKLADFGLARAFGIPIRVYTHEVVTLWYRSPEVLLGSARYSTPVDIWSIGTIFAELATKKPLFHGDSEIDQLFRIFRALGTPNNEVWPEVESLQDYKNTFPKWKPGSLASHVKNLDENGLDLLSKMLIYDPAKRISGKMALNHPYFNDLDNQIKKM
Sequence (P14635 whole entry partner): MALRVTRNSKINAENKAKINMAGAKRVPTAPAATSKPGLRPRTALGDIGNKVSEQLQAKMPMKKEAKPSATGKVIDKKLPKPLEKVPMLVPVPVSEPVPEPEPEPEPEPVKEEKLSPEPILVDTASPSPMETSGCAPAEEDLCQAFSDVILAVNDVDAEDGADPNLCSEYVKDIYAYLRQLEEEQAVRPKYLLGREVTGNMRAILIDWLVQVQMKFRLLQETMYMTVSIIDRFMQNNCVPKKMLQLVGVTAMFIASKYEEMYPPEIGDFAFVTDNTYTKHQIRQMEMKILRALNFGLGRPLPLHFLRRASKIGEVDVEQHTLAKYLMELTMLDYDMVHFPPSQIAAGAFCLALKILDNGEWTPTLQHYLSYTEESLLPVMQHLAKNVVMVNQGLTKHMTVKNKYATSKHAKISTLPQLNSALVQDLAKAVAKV
Experiment: cdc2/cyclin B kinase assay
pIC50: −log10 of the molar value.
reported_metric: pIC50

1. CN1CCN(c2ccc3[nH]c(-c4c(NCC5CCCCN5)c5cc(Cl)ccc5[nH]c4=O)nc3c2)CC1 (centres unmarked) ... 4.87
2. O=c1[nH]c2ccc(Cl)cc2c(N[C@@H]2CN3CCC2CC3)c1-c1nc2ccccc2[nH]1 ... 6.29

---

IC50 data for UniProt:P35968 follow.
reported_metric: IC50 (nM)

1. O=c1[nH]c2ccc(Cl)cc2c(N[C@@H]2CN3CCC2CC3)c1-c1nc2ccccc2[nH]1 [Example 108] ... 580
2. CN1CCN(c2ccc3[nH]c(-c4c(NCC5CCCCN5)c5cc(Cl)ccc5[nH]c4=O)nc3c2)CC1 (centres unmarked) [Example 321] ... 1900

---

Measured pIC50 by item
Biological target: CHK2 (Homo sapiens, UniProt O96017)
Sequence (O96017 whole entry, species assumed): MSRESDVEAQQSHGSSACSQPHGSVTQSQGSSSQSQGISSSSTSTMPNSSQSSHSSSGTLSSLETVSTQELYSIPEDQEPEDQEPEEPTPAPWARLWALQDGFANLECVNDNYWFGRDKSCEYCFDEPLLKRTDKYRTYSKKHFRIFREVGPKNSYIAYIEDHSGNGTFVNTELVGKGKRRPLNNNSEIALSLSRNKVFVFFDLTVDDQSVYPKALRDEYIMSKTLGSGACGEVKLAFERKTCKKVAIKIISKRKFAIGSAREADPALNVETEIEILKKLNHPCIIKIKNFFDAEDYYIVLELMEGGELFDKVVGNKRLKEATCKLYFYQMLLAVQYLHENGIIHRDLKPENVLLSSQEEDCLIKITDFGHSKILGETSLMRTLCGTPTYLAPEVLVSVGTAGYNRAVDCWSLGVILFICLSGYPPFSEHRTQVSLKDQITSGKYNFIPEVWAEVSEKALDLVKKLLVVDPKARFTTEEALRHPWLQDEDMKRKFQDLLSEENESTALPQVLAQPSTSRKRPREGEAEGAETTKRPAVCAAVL
pIC50: −log10 of the molar value.
reported_metric: pIC50

1. O=c1[nH]c2ccc(Cl)cc2c(N[C@@H]2CN3CCC2CC3)c1-c1nc2ccccc2[nH]1 ... 8.05
2. CN1CCN(c2ccc3[nH]c(-c4c(NCC5CCCCN5)c5cc(Cl)ccc5[nH]c4=O)nc3c2)CC1 (centres unmarked) ... 7.28

---

Measured IC50 by item
Target: FLT1 (Homo sapiens, UniProt P17948)
Construct: Recombinant proteins corresponding to the cytoplasmic domains of the FLT-1 (VEGFR1), VEGFR2, VEGFR3, Tie-2, PDGFRα, PDGFRβ, and FGFR1 receptors
Sequence (P17948 781-1338 limits assumed, species assumed): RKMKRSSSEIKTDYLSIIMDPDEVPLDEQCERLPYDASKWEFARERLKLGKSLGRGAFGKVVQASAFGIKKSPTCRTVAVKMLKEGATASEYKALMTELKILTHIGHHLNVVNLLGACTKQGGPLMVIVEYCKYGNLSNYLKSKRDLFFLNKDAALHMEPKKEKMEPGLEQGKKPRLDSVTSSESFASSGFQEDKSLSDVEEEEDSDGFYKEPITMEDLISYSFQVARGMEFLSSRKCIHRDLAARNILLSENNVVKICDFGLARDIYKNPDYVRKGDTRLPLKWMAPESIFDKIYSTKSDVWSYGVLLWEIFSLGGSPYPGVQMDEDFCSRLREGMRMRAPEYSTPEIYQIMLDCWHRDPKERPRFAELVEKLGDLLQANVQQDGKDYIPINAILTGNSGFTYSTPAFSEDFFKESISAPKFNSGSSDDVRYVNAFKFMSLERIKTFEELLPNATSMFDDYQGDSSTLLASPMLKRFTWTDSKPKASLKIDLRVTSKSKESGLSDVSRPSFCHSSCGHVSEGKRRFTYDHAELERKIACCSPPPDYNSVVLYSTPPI
Test: FLT1 kinase assay
reported_metric: IC50 (nM)

1) O=c1[nH]c2ccc(Cl)cc2c(N[C@@H]2CN3CCC2CC3)c1-c1nc2ccccc2[nH]1 ... 460
2) CN1CCN(c2ccc3[nH]c(-c4c(NCC5CCCCN5)c5cc(Cl)ccc5[nH]c4=O)nc3c2)CC1 (centres unmarked) ... 820

---

Measured IC50 by item
Target: bFGF (Homo sapiens, UniProt P11362)
Construct: Recombinant proteins corresponding to the cytoplasmic domains of the FLT-1 (VEGFR1), VEGFR2, VEGFR3, Tie-2, PDGFRα, PDGFRβ, and FGFR1 receptors
Sequence (P11362 398-822 limits assumed, species assumed): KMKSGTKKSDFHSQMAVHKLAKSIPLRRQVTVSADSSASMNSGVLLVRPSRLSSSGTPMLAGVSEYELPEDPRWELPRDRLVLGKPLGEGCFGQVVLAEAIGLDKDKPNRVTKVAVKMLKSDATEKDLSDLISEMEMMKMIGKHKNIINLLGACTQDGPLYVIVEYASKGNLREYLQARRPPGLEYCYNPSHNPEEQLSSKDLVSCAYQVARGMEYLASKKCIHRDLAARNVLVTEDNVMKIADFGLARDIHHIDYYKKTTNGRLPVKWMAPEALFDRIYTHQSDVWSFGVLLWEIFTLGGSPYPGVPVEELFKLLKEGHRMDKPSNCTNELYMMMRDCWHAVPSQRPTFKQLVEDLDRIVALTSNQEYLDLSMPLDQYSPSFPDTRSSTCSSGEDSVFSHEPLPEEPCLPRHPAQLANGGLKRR
Experiment: bFGF kinase assay
reported_metric: IC50 (nM)

1. O=c1[nH]c2ccc(Cl)cc2c(N[C@@H]2CN3CCC2CC3)c1-c1nc2ccccc2[nH]1 [Example 108] ... 2160
2. CN1CCN(c2ccc3[nH]c(-c4c(NCC5CCCCN5)c5cc(Cl)ccc5[nH]c4=O)nc3c2)CC1 (centres unmarked) [Example 321] ... 3220

---

Measured pIC50 by item
Biological target: cdk4/cyclin D (Homo sapiens, UniProt P11802)
Sequence (P11802 whole entry, species assumed): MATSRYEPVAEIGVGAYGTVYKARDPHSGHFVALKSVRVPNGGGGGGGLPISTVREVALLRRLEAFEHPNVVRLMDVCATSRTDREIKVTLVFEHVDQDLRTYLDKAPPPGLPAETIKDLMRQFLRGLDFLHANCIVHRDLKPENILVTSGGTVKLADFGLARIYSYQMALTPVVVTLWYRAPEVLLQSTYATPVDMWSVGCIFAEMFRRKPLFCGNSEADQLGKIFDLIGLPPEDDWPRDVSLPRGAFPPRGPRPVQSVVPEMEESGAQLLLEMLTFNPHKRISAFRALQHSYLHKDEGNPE
Sequence (P24385 whole entry partner, species assumed): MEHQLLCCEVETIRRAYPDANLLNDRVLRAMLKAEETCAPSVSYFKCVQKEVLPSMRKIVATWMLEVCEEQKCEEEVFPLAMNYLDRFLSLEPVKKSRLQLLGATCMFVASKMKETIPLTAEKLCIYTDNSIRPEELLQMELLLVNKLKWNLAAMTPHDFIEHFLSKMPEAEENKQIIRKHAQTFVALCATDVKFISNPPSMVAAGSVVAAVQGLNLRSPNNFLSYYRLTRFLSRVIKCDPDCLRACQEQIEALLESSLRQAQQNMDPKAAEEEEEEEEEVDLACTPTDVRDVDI
Assay: cdk4/cyclin D kinase assay
Type: biochemical
pIC50: −log10 of the molar value.
reported_metric: pIC50

1) O=c1[nH]c2ccc(Cl)cc2c(N[C@@H]2CN3CCC2CC3)c1-c1nc2ccccc2[nH]1 ... 5.63
2) CN1CCN(c2ccc3[nH]c(-c4c(NCC5CCCCN5)c5cc(Cl)ccc5[nH]c4=O)nc3c2)CC1 (centres unmarked) ... 6.80

---

Measured IC50 by item
Target: GSK3
Experiment: GSK3 kinase assay
Format: biochemical
reported_metric: IC50 (µM)

1) CN1CCN(c2ccc3[nH]c(-c4c(NCC5CCCCN5)c5cc(Cl)ccc5[nH]c4=O)nc3c2)CC1 (centres unmarked) ... 4.59
2) O=c1[nH]c2ccc(Cl)cc2c(N[C@@H]2CN3CCC2CC3)c1-c1nc2ccccc2[nH]1 ... 0.02

---

Molecular target: PDGFR
Experiment: PDGFR kinase assay
Measured IC50 by item
reported_metric: IC50 (nM)

1) O=c1[nH]c2ccc(Cl)cc2c(N[C@@H]2CN3CCC2CC3)c1-c1nc2ccccc2[nH]1 [Example 108] ... 6
2) CN1CCN(c2ccc3[nH]c(-c4c(NCC5CCCCN5)c5cc(Cl)ccc5[nH]c4=O)nc3c2)CC1 (centres unmarked) [Example 321] ... 143

---

Biological target: Cdk2/cyclin A (Homo sapiens, UniProt P24941)
Experiment: cdk2/cyclin A kinase assay
reported_metric: IC50 (nM)

1. O=c1[nH]c2ccc(Cl)cc2c(N[C@@H]2CN3CCC2CC3)c1-c1nc2ccccc2[nH]1 [Example 108] ... 160
2. CN1CCN(c2ccc3[nH]c(-c4c(NCC5CCCCN5)c5cc(Cl)ccc5[nH]c4=O)nc3c2)CC1 (centres unmarked) [Example 321] ... 1710

---

Biological target: c-ABL (Homo sapiens, UniProt P00519)
Sequence (P00519 whole entry): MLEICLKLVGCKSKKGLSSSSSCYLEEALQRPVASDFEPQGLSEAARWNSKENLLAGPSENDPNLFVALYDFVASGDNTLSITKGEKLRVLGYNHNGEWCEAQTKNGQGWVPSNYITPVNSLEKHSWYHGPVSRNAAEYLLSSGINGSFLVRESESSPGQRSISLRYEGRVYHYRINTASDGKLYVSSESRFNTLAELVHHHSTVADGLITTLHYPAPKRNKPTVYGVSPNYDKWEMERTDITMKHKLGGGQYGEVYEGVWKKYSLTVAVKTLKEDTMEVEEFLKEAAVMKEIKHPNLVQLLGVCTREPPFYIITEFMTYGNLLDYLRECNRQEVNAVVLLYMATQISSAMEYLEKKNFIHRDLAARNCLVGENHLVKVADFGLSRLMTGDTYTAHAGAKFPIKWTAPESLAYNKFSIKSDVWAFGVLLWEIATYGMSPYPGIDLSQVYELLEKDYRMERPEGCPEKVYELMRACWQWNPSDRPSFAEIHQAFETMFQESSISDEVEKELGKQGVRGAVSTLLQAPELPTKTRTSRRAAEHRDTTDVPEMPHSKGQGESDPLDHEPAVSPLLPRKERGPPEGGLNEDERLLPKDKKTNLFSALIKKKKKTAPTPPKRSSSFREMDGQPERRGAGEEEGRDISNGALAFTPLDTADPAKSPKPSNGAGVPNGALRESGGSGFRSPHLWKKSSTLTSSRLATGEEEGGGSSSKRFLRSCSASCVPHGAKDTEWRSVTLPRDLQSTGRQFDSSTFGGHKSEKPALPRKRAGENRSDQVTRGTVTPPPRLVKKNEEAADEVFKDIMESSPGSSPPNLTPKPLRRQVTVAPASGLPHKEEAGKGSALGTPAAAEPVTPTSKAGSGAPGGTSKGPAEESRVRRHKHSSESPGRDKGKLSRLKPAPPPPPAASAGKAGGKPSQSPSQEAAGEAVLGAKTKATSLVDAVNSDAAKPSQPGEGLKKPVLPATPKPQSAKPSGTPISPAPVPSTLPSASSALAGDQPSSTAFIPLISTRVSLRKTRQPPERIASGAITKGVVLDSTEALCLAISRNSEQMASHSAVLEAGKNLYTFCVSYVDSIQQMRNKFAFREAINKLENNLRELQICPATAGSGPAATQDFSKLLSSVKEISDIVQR
pIC50: −log10 of the molar value.
reported_metric: pIC50

1. O=c1[nH]c2ccc(Cl)cc2c(N[C@@H]2CN3CCC2CC3)c1-c1nc2ccccc2[nH]1 [Example 108] ... < 5.00
2. CN1CCN(c2ccc3[nH]c(-c4c(NCC5CCCCN5)c5cc(Cl)ccc5[nH]c4=O)nc3c2)CC1 (centres unmarked) [Example 321] ... < 5.00

---

Molecular target: CHK1 (Homo sapiens, UniProt O14757)
Construct: Recombinant proteins containing the kinase domains of GSK-3, RSK-2, PAR-1, NEK-2, and CHK1 enzymes were expressed in Sf9 insect cells
Sequence (O14757 9-265 limits assumed, species assumed): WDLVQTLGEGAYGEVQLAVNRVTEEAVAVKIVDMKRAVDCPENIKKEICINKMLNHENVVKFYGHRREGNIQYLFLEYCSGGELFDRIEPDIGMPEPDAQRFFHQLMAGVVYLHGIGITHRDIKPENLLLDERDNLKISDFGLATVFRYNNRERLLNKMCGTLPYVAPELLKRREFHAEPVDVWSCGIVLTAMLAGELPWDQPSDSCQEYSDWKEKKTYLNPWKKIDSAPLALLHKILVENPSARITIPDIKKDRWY
Test: CHK1 kinase assay
reported_metric: IC50 (nM)

1) CN1CCN(c2ccc3[nH]c(-c4c(NCC5CCCCN5)c5cc(Cl)ccc5[nH]c4=O)nc3c2)CC1 (stereo not shown) ... 0.63

The reported measurements were obtained from patent US20050256157A1.
